subject_of_test: EGFR (L858R,T790M) (Homo sapiens (Human), UniProt P00533, L858R/T790M)
Sequence (P00533 25-1210 T790M/L858R): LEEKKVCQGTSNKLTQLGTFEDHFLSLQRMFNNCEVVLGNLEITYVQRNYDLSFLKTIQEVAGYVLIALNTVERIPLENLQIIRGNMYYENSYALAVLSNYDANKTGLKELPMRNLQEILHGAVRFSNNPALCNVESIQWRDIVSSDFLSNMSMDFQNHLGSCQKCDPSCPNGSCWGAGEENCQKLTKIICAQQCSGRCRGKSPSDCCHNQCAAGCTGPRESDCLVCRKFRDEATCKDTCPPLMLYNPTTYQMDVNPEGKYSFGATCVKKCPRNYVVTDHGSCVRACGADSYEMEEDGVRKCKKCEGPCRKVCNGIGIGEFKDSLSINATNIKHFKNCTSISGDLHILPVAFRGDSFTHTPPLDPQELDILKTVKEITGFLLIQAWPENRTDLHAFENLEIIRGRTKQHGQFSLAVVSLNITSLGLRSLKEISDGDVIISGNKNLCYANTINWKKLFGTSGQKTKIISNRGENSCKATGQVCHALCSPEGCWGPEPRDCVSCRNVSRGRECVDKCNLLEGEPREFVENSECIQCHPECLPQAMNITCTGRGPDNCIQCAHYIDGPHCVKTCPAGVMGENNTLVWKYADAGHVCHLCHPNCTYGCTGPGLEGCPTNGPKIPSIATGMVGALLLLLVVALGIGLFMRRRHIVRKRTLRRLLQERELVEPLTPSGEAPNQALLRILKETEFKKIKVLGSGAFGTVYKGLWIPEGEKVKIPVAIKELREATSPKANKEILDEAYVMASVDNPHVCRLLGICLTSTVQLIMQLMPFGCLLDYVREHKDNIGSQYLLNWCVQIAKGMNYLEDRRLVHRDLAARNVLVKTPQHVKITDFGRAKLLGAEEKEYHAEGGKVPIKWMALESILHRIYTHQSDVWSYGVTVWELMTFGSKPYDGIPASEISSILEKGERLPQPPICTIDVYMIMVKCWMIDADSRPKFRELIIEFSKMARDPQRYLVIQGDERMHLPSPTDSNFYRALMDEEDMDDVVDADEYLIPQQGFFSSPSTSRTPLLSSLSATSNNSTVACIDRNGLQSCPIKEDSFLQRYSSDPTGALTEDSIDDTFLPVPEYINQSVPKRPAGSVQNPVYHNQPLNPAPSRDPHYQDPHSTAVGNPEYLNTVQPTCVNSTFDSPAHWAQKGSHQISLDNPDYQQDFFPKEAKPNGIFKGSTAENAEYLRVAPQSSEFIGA
test: in vitro kinase binding assay (Kd, phage-tagged kinase, qPCR)
pKd: −log10 of the molar value.
measurement_kind: pKd

a. C=CC(=O)N1CCC[C@@H](n2nc(-c3ccc(Oc4ccccc4)c(Cl)c3)c3c(N)ncnc32)C1
b. C=CC(=O)N1CCC[C@@H](n2nc(-c3ccc(Oc4ccc(F)cc4)cc3)c3c(N)ncnc32)C1
Which shows the larger pKd value: a or b ? Answer with the label corresponding to your selection.
a

====

# Kd per entry for BTK (Homo sapiens (Human), UniProt Q06187)

C=CC(=O)N1CCC[C@@H](n2nc(-c3ccc(Oc4ccc(F)cc4)cc3)c3c(N)ncnc32)C1; < 10 nM

Kindly consider the entry below.
Supply measured Kd of C=CC(=O)N1CCC[C@@H](n2nc(-c3ccc(Oc4ccccc4)c(Cl)c3)c3c(N)ncnc32)C1 in your reply.
< 10 nM
